Assay: yeast display, Sf9 membrane polyspecificity reagent, FACS + sequencing; frameworks hold sequencing errors
PARAMETER_MEASURED: polyreactivity (PSR sort gate)

QVQLVESGGGLVQPGGSLRLSCAASGSIFRYYAMGWYRQAPGKERELVATIRSGGSTTYADSVKGRFTISRDNAKNTVYLQMNSLKPEDTAVYYCAATYGWRFTTFPSGYASDYYWGQGTQVTVSS; high polyreactivity
QVQLQESVVCLVQALGSLRLSCAASGNISDYYDMGWYGHAPGKERKFVAGIDFGAITNYADSVKGRFTISRDNAKNTEYMQMSSLKPEDTAVYYCAAGVYDWYAYDYWGQGTQVTVSS; high polyreactivity
QVQLVESGGGLDQAGGSLPLSCAASGRTFRYYDRGSYRQAPGKERELVARISISGAGTYYADSVKGRFTISRDNAKNTVYFEMNSLKPEDTAVYYCAADLFWWQKTISGGDYWGQGTQVNVSS; low polyreactivity
QVQLVESGGGLVQAGGCLRLSCAASGVIFTRNVMGWYRQAPGKERELVAAISSGGRTYYADSVKGRFTISRDNAKNTVYLQMNSLKQEDTAVYYCNAGNRGVYRYDYWGQGTQVTVSS; high polyreactivity

Q: Quick one: polyreactivity (PSR sort gate) of `QVQLVESGGGLVQAGGSLRLSCAASGSKFKRNAMVWYRQAPGKERELVASISSGGSTHYADSVNGRFTISRDNSKNTVYLEMNSLKPEDTAVYYCAATSIRWSVGSFRRDYWGQGTQVTVSS` ?
A: low polyreactivity

----------
Assay: yeast display, Sf9 membrane polyspecificity reagent, FACS + sequencing; frameworks hold sequencing errors
PARAMETER_MEASURED: polyreactivity (PSR sort gate)

QVQLVESGGGLVQAGGSLRLSCAASGSTFPPNAMGWYRPAPGKERELVAVISNGGSNTRYADSVKGRFTISRDNAKNTVYLQMNSLKPEDTAVYYCAADYEYSGYGYWGQGTQVTVSS; high polyreactivity
QDQLQESGGGLVQAGGSLRLSCAASGSISYPRTMGWYRQAPGKEREFVAGIGVGGTTYYADSVKGRFTISRDNAKNTVYLQMKSLKPEDAAVYYCAVAAYYDKYYVYWGQGTQVTVSC; low polyreactivity
QVQLVESGGGLVQAGGSLRLSCAASGNIFDIYAMGWYRQATGKERELVAAICSGGSTYYADSVKGRFTISRDNAKNTVYLQMISLKTEDTAVDYCAESRVGYYRYEYWGQGTQVTVSS; low polyreactivity
QVQLVESGGGLVQAGGSLRLSCAASGFTFPYNDMGWYIQARGKEREFVAAISRSGTRTYYADSVKGRFTISRDNAKHTVYLQMNSLKPEDTAVYYCNARAAGYARLGPGFDYWGQGTQVTVSS; high polyreactivity
QVQLVESGGGLVQEGGSLRLSCAASGRIFTPYAMGWYRQAPGKERELVAVIRDGSTYYADSVKGRFTISRDNAKNTVYLQMNSLKPEDTAVYYCRYDIWVWWSGAYDYWGQGTQVTVSS; low polyreactivity

Q: What value of measured polyreactivity (PSR sort gate) is listed for `QVQLVESGGGLVQAGGSHRLSCAASGSIFVYNAMGCYIQAPGKERELVAGITFIGGSTYYADSVKGRFTISRDNAKNTVYLQMNSLKPEDTAVYYCNADVAPGIFYGYDSWGQGTQVTVSS` ?
A: low polyreactivity

Q: Now this one: `QDQLVESGGGLVQAGGSLRLSCAASGYTFFFYVMGWSRQAAGKERELVAAITFSVGSTYYADSVKRRFTISRDNAKNTVYLQMNSLKPEDTAVYYCAARGALYSHSYGSARYYYWGQGTQVTVSS`
A: high polyreactivity

Q: Try the sequence `QVQLVESGGGLVQAGGSLRLSCAASGLTFRDNAMGWYRQAPGTERELVATMNSGGSTDYADSVKGRFTISRHNAKNTVYLQMNSLKPEDTAVYYCAVYREYYDRGWYSIFYWYDYWGQGTQVTVSS`
A: low polyreactivity

Q: Thanks! And `QVQLVESGGGLVQAGGSLRLSCAASGRIFRPYAMGWYRQAPGKERELVASITRGGSTDYADSVKGRFTISRDNAKNTVYLQMNSLKPEDTAVYYCNKVWRFGYYGSYYWGQGTQVTVSS` ?
A: high polyreactivity
